// reported pIC50 per item
MEASUREMENT TARGET: human CB2 receptor (Homo sapiens, UniProt P34972)
Construct: host or cells: CHO-K1 (Chinese hamster ovary) cells, stably transfected; membranes prepared in house
Sequence (P34972 whole entry): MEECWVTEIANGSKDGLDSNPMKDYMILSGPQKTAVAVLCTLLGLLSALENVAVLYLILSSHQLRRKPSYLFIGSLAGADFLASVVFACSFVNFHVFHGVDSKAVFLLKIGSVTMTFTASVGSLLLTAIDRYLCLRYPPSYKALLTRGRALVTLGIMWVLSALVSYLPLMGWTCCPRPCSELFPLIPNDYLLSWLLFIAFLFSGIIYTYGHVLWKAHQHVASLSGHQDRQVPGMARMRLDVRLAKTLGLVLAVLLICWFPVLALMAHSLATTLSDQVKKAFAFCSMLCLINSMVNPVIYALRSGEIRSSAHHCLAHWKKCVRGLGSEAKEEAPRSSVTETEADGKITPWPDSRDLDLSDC
ASSAY NAME: CB2 radioligand ([3H]CP 55,940) competitive binding assay
CONDITION SET: displacement of 0.6 nM [3H]CP55,940, CHO-K1 membranes expressing human CB2; read-out: CB2 IC50
pIC50: −log10 of the molar value.
MEASUREMENT NAME: pIC50

>>> result("CCCCCc1cc(O)c(C/C=C(\\C)CCC=C(C)C)c(O)c1C(=O)NCc1ccc(F)cc1 [Compound 61]")
"> 6.30"
>>> result("CCCCCc1cc(O)c(C/C=C(\\C)CCC=C(C)C)c(O)c1C(=O)Nc1ccccc1 [Compound 10]")
"5.30 to 6.00"
>>> result("CCCCCc1cc(O)c(C/C=C(\\C)CCC=C(C)C)c(O)c1C(=O)Nc1ccc(F)cc1 [Compound 60]")
"> 6.30"
>>> result("CCCCCc1c(CN(C)C(=O)OC)c(O)c(CC=C(C)CCC=C(C)C)c(O)c1CN(C)C(=O)OC [Compound 59]")
"6.00 to 6.30"
>>> result("CCCCCc1cc(O)c(C/C=C(\\C)CCC=C(C)C)c(O)c1C(=O)Nc1ccc(OC)cc1 [Compound 11]")
"6.00 to 6.30"
>>> result("CCCCCc1cc(O)c(C/C=C(\\C)CCC=C(C)C)c(O)c1C(=O)N1CCOCC1 [Compound 39]")
"> 6.30"
>>> result("CCCCCc1cc(O)c(C/C=C(\\C)CCC=C(C)C)c(O)c1C(=O)NCc1cccnc1 [Compound 62]")
"6.00 to 6.30"
>>> result("CCCCCc1cc(O)c(C/C=C(\\C)CCC=C(C)C)c(O)c1C(=O)NC1CC1 [Compound 6]")
"5.30 to 6.00"

---

// reported pIC50 per item
MEASUREMENT TARGET: human CB2 receptor (Homo sapiens)
Construct: host or cells: CHO-K1 (Chinese hamster ovary) cells, stably transfected; membranes prepared in house
ASSAY NAME: CB2 radioligand ([3H]CP 55,940) competitive binding assay
CONDITION SET: displacement of 0.6 nM [3H]CP55,940, CHO-K1 membranes expressing human CB2; read-out: CB2 IC50
pIC50: −log10 of the molar value.
MEASUREMENT NAME: pIC50

>>> result("CCCCCc1cc(O)c(C/C=C(\\C)CCC=C(C)C)c(O)c1C(=O)N1CCCC1")
"5.30 to 6.00"
>>> result("CCCCCc1cc(O)c(C/C=C(\\C)CCC=C(C)C)c(O)c1C(=O)NC")
"5.30 to 6.00"
>>> result("CCCCCc1cc(O)c(C/C=C(\\C)CCC=C(C)C)c(O)c1C(=O)NCc1ccccc1")
"5.30 to 6.00"
>>> result("CCCCCc1cc(O)c(CC=C(C)CCC=C(C)C)c(O)c1CN(C)C(=O)OC")
"> 6.30"

---

MEASUREMENT TARGET: human CB2 receptor (Homo sapiens)
Construct: host or cells: CHO-K1 (Chinese hamster ovary) cells, stably transfected; membranes prepared in house
ASSAY NAME: CB2 radioligand ([3H]CP 55,940) competitive binding assay
// reported IC50 per item
MEASUREMENT NAME: IC50

>>> result("CCCCCc1cc(O)c(C/C=C(\\C)CCC=C(C)C)c(O)c1C(=O)N(CC)CC [Compound 50]")
"1000 to 4990 nM"
>>> result("CCCCCc1cc(O)c(C/C=C(\\C)CCC=C(C)C)c(O)c1C(=O)Nc1cccnc1 [Compound 63]")
"1000 to 4990 nM"

---

// reported Selectivity CB2 per item
MEASUREMENT TARGET: human CB2 receptor (Homo sapiens)
Construct: host or cells: CHO-K1 (Chinese hamster ovary) cells, stably transfected; membranes prepared in house
ASSAY NAME: CB2 radioligand ([3H]CP 55,940) competitive binding assay
CONDITION SET: fold difference in selectivity between CB1 and CB2 binding, shown in the column of the receptor with higher affinity
MEASUREMENT NAME: Selectivity CB2

>>> result("CCCCCc1cc(O)c(C/C=C(\\C)CCC=C(C)C)c(O)c1C(=O)Nc1ccc(OC)cc1 [Compound 11]")
2.35
>>> result("CCCCCc1cc(O)c(C/C=C(\\C)CCC=C(C)C)c(O)c1C(=O)Nc1cccnc1 [Compound 63]")
2.20
>>> result("CCCCCc1cc(O)c(C/C=C(\\C)CCC=C(C)C)c(O)c1C(=O)NC [Compound 1]")
4.06
>>> result("CCCCCc1cc(O)c(C/C=C(\\C)CCC=C(C)C)c(O)c1C(=O)NCc1ccccc1 [Compound 14]")
8.57

---

MEASUREMENT TARGET: human CB1 receptor (Homo sapiens, UniProt P21554)
Construct: host or cells: CHO-K1 (Chinese hamster ovary) cells, stably transfected; membranes prepared in house
Sequence (P21554 whole entry): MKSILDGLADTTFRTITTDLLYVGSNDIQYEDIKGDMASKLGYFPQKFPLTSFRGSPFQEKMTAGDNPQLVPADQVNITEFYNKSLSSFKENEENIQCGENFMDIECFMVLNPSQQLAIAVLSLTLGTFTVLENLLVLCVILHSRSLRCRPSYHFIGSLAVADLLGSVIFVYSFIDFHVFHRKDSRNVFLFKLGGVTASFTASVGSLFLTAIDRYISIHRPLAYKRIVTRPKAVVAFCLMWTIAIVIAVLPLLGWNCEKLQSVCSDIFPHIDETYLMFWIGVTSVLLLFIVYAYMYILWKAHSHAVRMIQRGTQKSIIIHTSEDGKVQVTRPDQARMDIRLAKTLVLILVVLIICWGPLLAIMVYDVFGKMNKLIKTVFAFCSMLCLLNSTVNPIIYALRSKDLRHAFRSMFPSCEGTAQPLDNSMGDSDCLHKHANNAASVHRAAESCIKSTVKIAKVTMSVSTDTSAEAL
ASSAY NAME: CB1 radioligand ([3H]CP 55,940) competitive binding assay
CONDITION SET: displacement of 0.8 nM [3H]CP 55,940, CHO-K1 membranes expressing human CB1; read-out: CB1 IC50
pIC50: −log10 of the molar value.
MEASUREMENT NAME: pIC50

>>> result("CCCCCc1c(CN(C)C(=O)OC)c(O)c(CC=C(C)CCC=C(C)C)c(O)c1CN(C)C(=O)OC")
"6.00 to 6.30"
>>> result("CCCCCc1cc(O)c(C/C=C(\\C)CCC=C(C)C)c(O)c1C(=O)NC")
"< 5.30"
>>> result("CCCCCc1cc(O)c(C/C=C(\\C)CCC=C(C)C)c(O)c1C(=O)N1CCCC1")
"< 5.30"
>>> result("CCCCCc1cc(O)c(C/C=C(\\C)CCC=C(C)C)c(O)c1C(=O)N1CCOCC1")
"< 5.30"
>>> result("CCCCCc1cc(O)c(C/C=C(\\C)CCC=C(C)C)c(O)c1C(=O)Nc1ccc(F)cc1")
"5.30 to 6.00"
>>> result("CCCCCc1cc(O)c(C/C=C(\\C)CCC=C(C)C)c(O)c1C(=O)NCc1ccccc1")
"< 5.30"
>>> result("CCCCCc1cc(O)c(C/C=C(\\C)CCC=C(C)C)c(O)c1C(=O)Nc1ccccc1")
"< 5.30"
>>> result("CCCCCc1cc(O)c(C/C=C(\\C)CCC=C(C)C)c(O)c1C(=O)Nc1ccc(OC)cc1")
"5.30 to 6.00"

---

MEASUREMENT TARGET: human CB1 receptor (Homo sapiens, UniProt P21554)
Construct: host or cells: CHO-K1 (Chinese hamster ovary) cells, stably transfected; membranes prepared in house
ASSAY NAME: CB1 radioligand ([3H]CP 55,940) competitive binding assay
CONDITION SET: displacement of 0.8 nM [3H]CP 55,940, CHO-K1 membranes expressing human CB1; read-out: CB1 IC50
// reported IC50 per item
MEASUREMENT NAME: IC50

>>> result("CCCCCc1cc(O)c(C/C=C(\\C)CCC=C(C)C)c(O)c1C(=O)NC1CC1")
"1000 to 4990 nM"
>>> result("CCCCCc1cc(O)c(C/C=C(\\C)CCC=C(C)C)c(O)c1C(=O)NCc1ccc(F)cc1")
"500 to 990 nM"
>>> result("CCCCCc1cc(O)c(CC=C(C)CCC=C(C)C)c(O)c1CN(C)C(=O)OC")
"1000 to 4990 nM"
>>> result("CCCCCc1cc(O)c(C/C=C(\\C)CCC=C(C)C)c(O)c1C(=O)NCc1cccnc1")
"1000 to 4990 nM"

From: patent US20230286906A1
